B1: HDV Ribozyme (parent)
chain: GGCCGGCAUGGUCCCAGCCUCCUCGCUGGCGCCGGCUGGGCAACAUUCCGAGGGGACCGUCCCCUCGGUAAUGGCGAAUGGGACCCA

Variants of: B1
assay.details: self-cleavage, relative activity (ratio to wild type); higher = more cleavage; co-transcriptional
Short version: self-cleavage at least 0.2 is satisfied, less is not satisfied.

Here's what some known entries look like.
{"construct.sequence": "GGCCGGCAUGGUCCCAGCCUCCUCGCUGGCGCCGGCUGGGCGACAUUCCGAGGGGACCGUCCCCUCGGUAACGGCGAAUGGGACCCA [A42G U72C]", "class.name": "satisfied"}
{"construct.sequence": "GGCCGGCAUGGUCCCAGCCUCCUCGCUGGCGCCGCCUGAGCAACAUUCCGAGGGGACCGUCCCCUCGGUAAUGGCGAAUGGGACCCA [G35C G39A]", "class.name": "not satisfied"}
{"construct.sequence": "GGCCGGCAUGGUCCCAGCCUCCUCGCUGGCGCCAUCUGGGCAACAUUCCGAGGGGACCGUCCCCUCGGUAAUGGCGAAUGGGACCCA [G34A G35U]", "class.name": "not satisfied"}
{"construct.sequence": "GGCCGGCAUGGUCCCAGCCUCCUCGCUGGCGCCGCAUGGGCAACAUUCCGAGGGGACCGUCCCCUCGGUAAUGGCGAAUGGGACCCA [G35C C36A]", "class.name": "not satisfied"}
{"construct.sequence": "GGCCGGCAUGGUCCCAGCCUCCUCGCUGGCGCCGACUGGGCGACAUUCCGAGGGGACCGUCCCCUCGGUAAUGGCGAAUGGGACCCA [G35A A42G]", "class.name": "not satisfied"}
{"construct.sequence": "GGCCGGCAUGGUCACAGCCUCCUCACUGGCGCCGGCUGGGCAACAUUCCGAGGGGACCGUCCCCUCGGUAAUGGCGAAUGGGACCCA [C14A G25A]", "class.name": "not satisfied"}
{"construct.sequence": "GGCCGGCAUGGUCCCAGCAUCCUCGCUGGCGCCGGCUGGGCAACAUUCCGAGGGGACCGUCCCCUCGGUAAUGGCGCAUGGGACCCA [C19A A77C]", "class.name": "not satisfied"}
{"construct.sequence": "GGCCGGCAUGGUCCCAGCCUCCUCGCUGGCGCCGGCUGGGCAACAUUUCGAGGGGACCGUACCCUCGGUAAUGGCGAAUGGGACCCA [C48U C61A]", "class.name": "satisfied"}

For the next question, use this variant.
Input line: I'd appreciate it if you could say whether UGCCGGCAUGGUCCCAGCCUCCUCGCUGGCGCCGGCUGGGCAACAUUCCGAGGGGUCCGUCCCCUCGGUAAUGGCGAAUGGGACCCA [G1U A56U] has self-cleavage at least equal to 0.2.
Output line: satisfied

This collection of values is drawn from the RNAGym collection of RNA variant scans (doi:10.7554/elife.80360).
